Attribution: patent US20200131180A1

assay-target: UniProtKB P11229
Sequence (P11229 1-460): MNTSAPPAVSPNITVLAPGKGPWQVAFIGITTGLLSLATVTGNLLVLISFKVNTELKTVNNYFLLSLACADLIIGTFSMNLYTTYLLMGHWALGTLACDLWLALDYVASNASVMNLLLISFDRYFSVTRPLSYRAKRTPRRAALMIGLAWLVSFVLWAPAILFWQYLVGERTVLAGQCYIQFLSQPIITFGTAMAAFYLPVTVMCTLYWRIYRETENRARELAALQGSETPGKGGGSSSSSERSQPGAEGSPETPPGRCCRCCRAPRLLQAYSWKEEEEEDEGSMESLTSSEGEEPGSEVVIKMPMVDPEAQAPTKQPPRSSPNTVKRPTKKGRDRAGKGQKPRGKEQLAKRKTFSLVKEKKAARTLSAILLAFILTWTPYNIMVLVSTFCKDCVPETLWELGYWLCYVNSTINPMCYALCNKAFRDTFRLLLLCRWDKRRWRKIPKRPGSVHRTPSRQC
assay: mAChR M1 cell-based functional assay (calcium mobilization, PAM activity)
protocol-conditions: CHO-K1 cells expressing hM1; calcium flux (Fluo-4); potentiation of EC20 acetylcholine response
metric: Emax (%)

As a guide, the following entries are already answered.
Cn1ccc(-c2cc(F)c(Cc3cc(C(=O)N[C@H]4CCOC[C@@H]4O)c4nccn4c3)c(F)c2)n1 [compound 38]
69
Cn1ccc(-c2cc(F)c(Cc3cc(C(=O)N[C@H]4CCCC[C@@H]4O)c4nccn4c3)c(F)c2)n1 [compound 39]
58

(P) Cn1ccc(-c2cc(F)c(Cc3cc(C(=O)N[C@H]4CCCC[C@@H]4O)c4ncnn4c3)c(F)c2)n1 [compound 42]
(Q) O=C(N[C@H]1CCCCC[C@@H]1O)c1cc(Cc2ccc(-n3cccn3)nc2)cn2ccnc12 [compound 61]
Prompt: Hi there! Just curious which has the higher Emax between P and Q . Could you answer with the label of the item you picked?
Response: P
(P: 83%, Q: 52%)

(A) Cn1ccc(-c2ccc(Cc3cc(C(=O)N[C@H]4CCC[C@@H]4O)c4ncnn4c3)cc2)n1 [compound 11]
(B) O=C(N[C@H]1CCCC[C@@H]1O)c1cc(Cc2ccc(-n3cccn3)nc2)cn2ccnc12 [compound 60]
Prompt: Field: lower Emax | Options: A / B Could you answer with the label of the item you picked?
Response: B
(B: 47%, A: 88%)
